- experimental_system: BChE (Homo sapiens)
- Construct: purchased Sigma Inc
- measurement_description: BChE inhibition assay (Ellman method with slight modifications)
- Assay type: biochemical
endpoint_name: pIC50
Field pIC50 (float): negative decimal logarithm of the concentration in molar.

Could you share which pIC50 value was measured for NNC(=O)Cc1c[nH]c2ccccc12 [Compound 3] ?
3.86

----------
- experimental_system: BChE (Homo sapiens)
- Construct: purchased Sigma Inc
- measurement_description: BChE inhibition assay (Ellman method with slight modifications)
- Type: biochemical
- particulars: 0.5 mM test compound; mean with SEM; read-out: BChE Inhibition, Inhibition (%) at 0.5 mM
endpoint_name: inhibition at 500 µM (%)
Lab book: enter the figure in %, no units written.

These recorded examples may help you get a feel for the data.
compound	experimental_system	unit_abbreviation	endpoint_value
Cc1ccc(/C=N/NC(=O)Cc2c[nH]c3ccccc23)cc1 [Compound 4d]	BChE (Homo sapiens)	%	43.6
Cc1ccc(S(=O)(=O)NNC(=O)Cc2c[nH]c3ccccc23)cc1 [Compound 6a]	BChE (Homo sapiens)	%	72.5
O=C(Cc1c[nH]c2ccccc12)NN=C(c1ccccc1)c1ccccc1 [Compound 4f]	BChE (Homo sapiens)	%	89.5
O=C(Cc1c[nH]c2ccccc12)NNS(=O)(=O)c1cccc([N+](=O)[O-])c1 [Compound 6c]	BChE (Homo sapiens)	%	81.2
O=C(Cc1c[nH]c2ccccc12)N/N=C/c1ccc(Cl)cc1 [Compound 4g]	BChE (Homo sapiens)	%	30.1

Could you share which inhibition at 500 µM value was measured for COC(=O)Cc1c[nH]c2ccccc12 [Compound 2] ?
59.8

Could you share which inhibition at 500 µM value was measured for O=C(Cc1c[nH]c2ccccc12)NNS(=O)(=O)c1ccc([N+](=O)[O-])cc1 [Compound 6d] ?
63.7

Could you share which inhibition at 500 µM value was measured for CC(=O)NNC(=O)Cc1c[nH]c2ccccc12 [Compound 5a] ?
90.8

----------
Each entry below carries its reported inhibition at 500 µM.
- experimental_system: AChE (Homo sapiens)
- Construct: purchased Sigma Inc
- Sequence (P22303 32-614): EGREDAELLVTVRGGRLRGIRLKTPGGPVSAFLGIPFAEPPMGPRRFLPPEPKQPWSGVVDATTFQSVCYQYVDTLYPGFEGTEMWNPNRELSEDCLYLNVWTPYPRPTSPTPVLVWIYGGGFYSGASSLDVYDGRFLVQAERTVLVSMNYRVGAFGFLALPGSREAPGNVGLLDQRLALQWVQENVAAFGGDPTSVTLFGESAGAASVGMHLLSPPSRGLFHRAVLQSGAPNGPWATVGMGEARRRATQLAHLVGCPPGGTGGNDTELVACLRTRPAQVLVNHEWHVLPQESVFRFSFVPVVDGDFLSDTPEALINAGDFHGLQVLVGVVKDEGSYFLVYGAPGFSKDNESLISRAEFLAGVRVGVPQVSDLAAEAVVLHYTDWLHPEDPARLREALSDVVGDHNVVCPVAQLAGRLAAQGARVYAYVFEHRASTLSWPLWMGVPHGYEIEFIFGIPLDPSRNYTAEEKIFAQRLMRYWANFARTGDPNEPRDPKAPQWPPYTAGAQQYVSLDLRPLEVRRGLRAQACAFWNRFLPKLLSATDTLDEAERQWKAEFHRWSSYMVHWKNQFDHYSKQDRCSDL
- measurement_description: biochemical
- Type: biochemical
- particulars: 0.5 mM test compound; mean with SEM; read-out: AChE Inhibition, Inhibition (%) at 0.5 mM
Lab book: enter the figure in %, no units written.

These recorded examples may help you get a feel for the data.
Cc1ccc(S(=O)(=O)NNC(=O)Cc2c[nH]c3ccccc23)cc1 78.1
CC(=O)NNC(=O)Cc1c[nH]c2ccccc12 60.5
O=C(Cc1c[nH]c2ccccc12)NNS(=O)(=O)c1ccc(Br)cc1 90.8
O=C(Cc1c[nH]c2ccccc12)N/N=C/c1ccccc1O 75.5
COc1ccc(/C=N/NC(=O)Cc2c[nH]c3ccccc23)cc1 75.5

Please look at the following compound next.
Could you share which inhibition at 500 µM value was measured for O=C(Cc1c[nH]c2ccccc12)NN=C(c1ccccc1)c1ccccc1 ?
89.3

----------
- experimental_system: BChE (Homo sapiens, UniProt P06276)
- Construct: purchased Sigma Inc
- Sequence (P06276 29-602): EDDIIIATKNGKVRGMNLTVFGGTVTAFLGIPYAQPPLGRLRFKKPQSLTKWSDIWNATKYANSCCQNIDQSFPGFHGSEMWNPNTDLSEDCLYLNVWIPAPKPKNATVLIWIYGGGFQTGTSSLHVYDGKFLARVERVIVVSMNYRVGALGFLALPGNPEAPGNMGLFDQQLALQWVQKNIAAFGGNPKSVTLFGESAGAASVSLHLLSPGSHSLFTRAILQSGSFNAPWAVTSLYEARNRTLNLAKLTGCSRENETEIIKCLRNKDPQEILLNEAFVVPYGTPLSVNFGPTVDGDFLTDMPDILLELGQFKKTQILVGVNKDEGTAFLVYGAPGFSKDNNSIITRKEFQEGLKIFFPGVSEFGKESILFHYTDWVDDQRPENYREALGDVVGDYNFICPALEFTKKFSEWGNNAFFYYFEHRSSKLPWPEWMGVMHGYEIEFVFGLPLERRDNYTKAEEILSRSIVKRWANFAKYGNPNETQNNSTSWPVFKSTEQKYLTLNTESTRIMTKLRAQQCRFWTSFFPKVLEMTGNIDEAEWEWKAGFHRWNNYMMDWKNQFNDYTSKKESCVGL
- measurement_description: BChE inhibition assay (Ellman method with slight modifications)
- Format: biochemical
- particulars: mean with SEM; read-out: BChE Inhibition, IC50
endpoint_name: IC50 (µM)
Lab book: enter the figure in µM, no units written.

These recorded examples may help you get a feel for the data.
C/C(=N\NC(=O)Cc1c[nH]c2ccccc12)c1ccccc1 146
Cc1ccc(S(=O)(=O)NNC(=O)Cc2c[nH]c3ccccc23)cc1 101
O=C(Cc1c[nH]c2ccccc12)NNS(=O)(=O)c1ccc(Br)cc1 73.5
O=C(Cc1c[nH]c2ccccc12)N/N=C/c1ccccc1 86.3

Please look at the following compound next.
Could you share which IC50 value was measured for O=C(Cc1c[nH]c2ccccc12)NNC(=O)C(F)(F)F ?
68.9
